# System: ECU
# assay-text: qHTS profiling for inhibitors of Plasmodium falciparum proliferation (AID 504749); also: nearly all actives have a fitted effect of over 60% in size
# assay-context: P. falciparum in erythrocytes, SYBR Green DNA, 72 h; series mostly up to 28.7 µM
# Procedure: NIH National Institute of Allergy and Infectious Diseases [NIAID] NIH Chemical Genomics Center [NCGC] […] Because mature erythrocytes lack DNA, only Plasmodium-derived DNA is detected. NCGC Assay Protocol Summary: The SYBR Green viability assay was adapted from a method described previously (Plouffe et al., 2008). […] The following morning, fluorescence intensity at 485(14) nm excitation and 535(25) nm emission wavelengths was measured on an EnVision (Perkin Elmer) plate reader. […]
Results filed as inconclusive are left out. Activity calls are given as the source filed them. Calls follow the shape of the dose curve; as a rule, active = well fitted inhibition curve with a large enough effect; inconclusive = small, poorly fitted or top-dose-only effect; inactive = flat fitted curve, though single readings scatter.
Outcome codes: active, inactive

INSERT INTO assay_data (molecule, class_assignment) VALUES
  ('O=C(c1ccccc1)C(O)c1ccccc1 (stereo not given)', 'inactive'),
  ('COc1ccc(Cc2cnc(N)nc2N)cc1OC', 'active'),
  ('O=C(Cn1ccnc1[N+](=O)[O-])NCCO', 'inactive'),
  ('CC(C(=O)O)c1ccc2c(c1)Cc1cccnc1O2 (stereo not given)', 'inactive'),
  ('Cc1cc(C)nc(NS(=O)(=O)c2ccc(N)cc2)n1', 'inactive'),
  ('CC(=O)Nc1ccc(C(=O)O)cc1', 'inactive'),
  ('COc1ccc(C(=O)N2CCN(CC(=O)N3CCOCC3)CC2)cc1', 'inactive'),
  ('CC(O)CCCCn1c(=O)c2c(ncn2C)n(C)c1=O (stereo not given)', 'inactive'),
  ('COc1ccccc1OC(=O)Oc1ccccc1OC', 'inactive'),
  ('CN1CCCN=C1COC(=O)C(O)(c1ccccc1)C1CCCCC1 (stereo not given)', 'inactive'),
  ('O=C(/C=C/c1ccccc1)OCc1ccccc1', 'inactive'),
  ('CCCCCCCCCCCCCCCCN', 'inactive'),
  ('NS(=O)(=O)c1ccc(NC(=O)CCC(=O)O)cc1', 'inactive'),
  ('Cn1c(=O)c2c(ncn2CCO)n(C)c1=O', 'inactive'),
  ('Cc1cc(NC(=O)C2=C(O)c3ccccc3S(=O)(=O)N2C)no1', 'inactive'),
  ('NC(N)=NCCN1CCCCCCC1', 'inactive'),
  ('CC(CSC(=O)c1ccccc1)C(=O)N1C[C@@H](Sc2ccccc2)C[C@H]1C(=O)O (stereo not given in full)', 'inactive'),
  ('CC[N+](C)(CC)CCOC(=O)C1c2ccccc2Oc2ccccc21', 'inactive'),
  ('O=C(O)CCCCC1CCSS1 (stereo not given)', 'inactive'),
  ('O=C(OOC(=O)c1ccccc1)c1ccccc1', 'inactive'),
  ('CC(C)(C)C(=O)OCOC(=O)[C@@H]1N2C(=O)[C@@H](NC(=O)[C@H](N)c3ccccc3)[C@H]2SC1(C)C', 'inactive'),
  ('N[C@@H](Cc1ccc(O)cc1)C(=O)O', 'inactive'),
  ('Cn1c([N+](=O)[O-])cnc1COC(N)=O', 'inactive'),
  ('O=S1(=O)OC(c2ccc(O)cc2)(c2ccc(O)cc2)c2ccccc21', 'inactive'),
  ('O=C(CCBr)N1CCN(C(=O)CCBr)CC1', 'inactive'),
  ('CC(=O)SC[C@@H](Cc1ccccc1)C(=O)NCC(=O)OCc1ccccc1', 'inactive'),
  ('O=C(O)CCCc1ccccc1', 'inactive'),
  ('COc1cc(C(=O)NCCCCCC(=O)O)cc(OC)c1OC', 'inactive'),
  ('CCc1nnc(NS(=O)(=O)c2ccc(N)cc2)s1', 'inactive'),
  ('O=C(NCCCN1CCOCC1)c1ccc(Cl)cc1', 'inactive'),
  ('CC(=O)OCC(COC(C)=O)OC(C)=O', 'inactive'),
  ('COc1nccnc1NS(=O)(=O)c1ccc(N)cc1', 'inactive'),
  ('CCCCCC(N)=O', 'inactive'),
  ('COc1ccc(O)cc1', 'inactive'),
  ('CCCCCCCC(=O)OCC(COC(=O)CCCCCCC)OC(=O)CCCCCCC', 'inactive'),
  ('Cc1cc(=O)[nH]c(=S)[nH]1', 'inactive'),
  ('CCOC(=O)c1cccnc1', 'inactive'),
  ('CC(C)CCOC(=O)c1ccc(N(C)C)cc1', 'inactive'),
  ('CC(=O)N[C@@H](Cc1ccc(O)cc1)C(=O)O', 'inactive'),
  ('CC(C)c1cc2c(cc1S(=O)(=O)O)[C@@]1(C)CCC[C@@](C)(C(=O)O)[C@@H]1CC2', 'inactive'),
  ('CC(=O)Nc1ccc(OCCOCCOc2ccc(NC(C)=O)cc2)cc1', 'inactive'),
  ('CCOc1cc(NC(C)=O)ccc1C(=O)OC', 'inactive'),
  ('O=C1c2ccccc2S(=O)(=O)N1CCCCN1CCN(c2ncccn2)CC1', 'inactive'),
  ('CCCC(O)C(CC)CO (stereo not given)', 'inactive'),
  ('CCCNC(C)(C)COC(=O)c1ccccc1', 'inactive'),
  ('COc1ccccc1Oc1c(NS(=O)(=O)c2ccc(C(C)(C)C)cc2)nc(-c2ncccn2)nc1OCCO', 'inactive'),
  ('Nc1ncnc(Nc2ccccc2)n1', 'inactive'),
  ('COC(=O)c1cccnc1', 'inactive'),
  ('COC(=O)c1ccccc1C(=O)c1ccc(OCCN2CCCCC2)cc1', 'inactive'),
  ('OCC(O)CS (stereo not given)', 'inactive'),
  ('CCN(CC)CCc1nc(-c2ccccc2)no1', 'inactive'),
  ('O=C1CC[C@@H](C(=O)O)N1', 'inactive'),
  ('Cc1ccccc1N=Nc1ccc(N=Nc2c(O)ccc3ccccc23)c(C)c1', 'inactive'),
  ('Cc1c(NC(=O)c2cccnc2)c(=O)n(-c2ccccc2)n1C', 'inactive'),
  ('Cc1cccc(C(=O)O)c1O', 'inactive');
